Measured Target: INADL-8 (Homo sapiens)
Sequence (Q8NI35 whole entry): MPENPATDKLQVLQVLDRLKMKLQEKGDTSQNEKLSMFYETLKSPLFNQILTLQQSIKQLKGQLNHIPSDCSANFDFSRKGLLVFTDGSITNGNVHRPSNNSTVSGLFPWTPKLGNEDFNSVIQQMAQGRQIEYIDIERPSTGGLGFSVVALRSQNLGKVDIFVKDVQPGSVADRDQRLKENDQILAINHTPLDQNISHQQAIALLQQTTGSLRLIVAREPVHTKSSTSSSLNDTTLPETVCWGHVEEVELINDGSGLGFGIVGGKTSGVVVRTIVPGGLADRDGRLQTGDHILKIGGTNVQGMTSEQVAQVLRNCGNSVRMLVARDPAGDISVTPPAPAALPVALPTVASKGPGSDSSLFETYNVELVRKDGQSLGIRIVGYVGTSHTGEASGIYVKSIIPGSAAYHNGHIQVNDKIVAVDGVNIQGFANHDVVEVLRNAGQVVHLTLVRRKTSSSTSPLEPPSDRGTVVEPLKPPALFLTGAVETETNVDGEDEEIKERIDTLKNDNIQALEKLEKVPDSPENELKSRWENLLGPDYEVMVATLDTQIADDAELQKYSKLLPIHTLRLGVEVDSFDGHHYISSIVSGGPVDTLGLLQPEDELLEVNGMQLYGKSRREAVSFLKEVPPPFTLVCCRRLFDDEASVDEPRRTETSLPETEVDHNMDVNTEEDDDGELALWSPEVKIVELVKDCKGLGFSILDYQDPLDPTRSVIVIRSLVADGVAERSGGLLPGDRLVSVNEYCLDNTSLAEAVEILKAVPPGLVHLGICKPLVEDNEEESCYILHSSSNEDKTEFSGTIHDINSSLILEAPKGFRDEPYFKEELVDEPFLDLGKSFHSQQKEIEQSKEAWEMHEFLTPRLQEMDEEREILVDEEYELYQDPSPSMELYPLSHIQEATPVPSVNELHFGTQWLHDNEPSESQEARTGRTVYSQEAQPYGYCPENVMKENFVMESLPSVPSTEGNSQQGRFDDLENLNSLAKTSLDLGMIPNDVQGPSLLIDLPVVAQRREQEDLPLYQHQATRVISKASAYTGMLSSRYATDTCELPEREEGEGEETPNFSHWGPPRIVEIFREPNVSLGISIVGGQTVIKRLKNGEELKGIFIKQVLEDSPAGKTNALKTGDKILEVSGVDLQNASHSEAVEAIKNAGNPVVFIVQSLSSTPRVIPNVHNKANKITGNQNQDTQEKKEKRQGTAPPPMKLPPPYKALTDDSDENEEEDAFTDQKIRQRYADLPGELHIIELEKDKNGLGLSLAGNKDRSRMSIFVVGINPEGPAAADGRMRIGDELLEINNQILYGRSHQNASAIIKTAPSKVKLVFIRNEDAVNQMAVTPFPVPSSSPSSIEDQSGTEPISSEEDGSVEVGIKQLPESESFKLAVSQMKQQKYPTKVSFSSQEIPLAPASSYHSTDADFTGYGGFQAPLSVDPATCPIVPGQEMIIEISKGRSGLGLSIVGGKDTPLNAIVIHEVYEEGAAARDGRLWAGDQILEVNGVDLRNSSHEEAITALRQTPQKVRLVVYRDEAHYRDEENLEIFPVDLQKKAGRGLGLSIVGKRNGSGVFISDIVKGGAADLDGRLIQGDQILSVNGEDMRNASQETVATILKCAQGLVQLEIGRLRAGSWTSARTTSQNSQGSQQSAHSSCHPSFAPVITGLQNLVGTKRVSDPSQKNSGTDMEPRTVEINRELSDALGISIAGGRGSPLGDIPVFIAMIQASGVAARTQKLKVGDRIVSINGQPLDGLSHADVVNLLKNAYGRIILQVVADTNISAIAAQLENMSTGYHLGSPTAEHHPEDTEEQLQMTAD
*1 amine or outer side, *2 acyl side, *3 side chain or, on linkers, in order; H or OH if unused. Where a SMILES comes first, the peptide text is derived from it. The star is where a group is joined. X1 = O=C(CCCC[C@@H]1SC[C@@H]2NC(=O)N[C@@H]21)NCCCOCCOCCOCCCN*; Suc = O=C(CCC(=O)[*:2])[*:1]
Overview of recorded Kd for various molecules

Molecule	Kd (µM)
CC[C@H](C)[C@H](NC(=O)[C@H](CCC(N)=O)NC(=O)[C@@H](NC(=O)[C@H](Cc1c[nH]cn1)NC(=O)[C@H](CCC(N)=O)NC(=O)[C@H](CC(=O)O)NC(=O)[C@H](CCC(=O)O)NC(=O)[C@H](CC(=O)O)NC(=O)[C@H](Cc1ccccc1)NC(=O)[C@@H]1CCCN1C(=O)CCC(=O)NCCCOCCOCCOCCCNC(=O)CCCC[C@@H]1SC[C@@H]2NC(=O)N[C@@H]21)[C@@H](C)O)C(=O)N[C@H](C(=O)N[C@@H](CCCCN)C(=O)N[C@H](C(=O)O)C(C)C)[C@@H](C)O [PTEN_13] ({X1-Suc}-PFDEDQHTQITKV-OH)	48.8
CC[C@H](C)[C@H](NC(=O)[C@H](CCC(N)=O)NC(=O)[C@@H](NC(=O)[C@H](Cc1c[nH]cn1)NC(=O)[C@H](CCC(N)=O)NC(=O)[C@H](CC(=O)O)NC(=O)[C@H](CCC(=O)O)NC(=O)[C@H](CC(=O)O)NC(=O)CCC(=O)NCCCOCCOCCOCCCNC(=O)CCCC[C@@H]1SC[C@@H]2NC(=O)N[C@@H]21)[C@@H](C)O)C(=O)N[C@H](C(=O)N[C@@H](CCCCNC(C)=O)C(=O)N[C@H](C(=O)O)C(C)C)[C@@H](C)O	25
CC[C@H](C)[C@H](NC(=O)[C@H](CCC(N)=O)NC(=O)[C@@H](NC(=O)[C@H](Cc1c[nH]cn1)NC(=O)[C@H](CCC(N)=O)NC(=O)[C@H](CC(=O)O)NC(=O)[C@H](CCC(=O)O)NC(=O)[C@H](CC(=O)O)NC(=O)CCC(=O)NCCCOCCOCCOCCCNC(=O)CCCC[C@@H]1SC[C@@H]2NC(=O)N[C@@H]21)[C@@H](C)O)C(=O)N[C@H](C(=O)N[C@@H](CCCCN)C(=O)N[C@H](C(=O)O)C(C)C)[C@@H](C)O	51.2
CC[C@H](C)[C@H](NC(=O)[C@H](CCC(N)=O)NC(=O)[C@@H](NC(=O)[C@H](Cc1c[nH]cn1)NC(=O)[C@H](CCC(N)=O)NC(=O)[C@H](CC(=O)O)NC(=O)[C@H](CCC(=O)O)NC(=O)[C@H](CC(=O)O)NC(=O)CCC(=O)NCCCOCCOCCOCCCNC(=O)CCCC[C@@H]1SC[C@@H]2NC(=O)N[C@@H]21)[C@@H](C)O)C(=O)N[C@H](C(=O)N[C@@H](CCCNC(=N)N)C(=O)N[C@H](C(=O)O)C(C)C)[C@@H](C)O [PTEN_KR] ({X1-Suc}-DEDQHTQITRV-OH)	20.1
